Target: NRAS Q61R (Homo sapiens, UniProt P01111+P62937, Q61R)
Sequence (P01111 whole entry Q61R): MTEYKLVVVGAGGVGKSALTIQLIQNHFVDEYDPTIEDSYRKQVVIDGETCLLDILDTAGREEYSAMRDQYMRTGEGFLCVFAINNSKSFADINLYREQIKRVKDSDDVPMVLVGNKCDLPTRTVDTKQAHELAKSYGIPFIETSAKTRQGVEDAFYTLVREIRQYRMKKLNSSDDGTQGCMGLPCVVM
Sequence (P62937 whole entry): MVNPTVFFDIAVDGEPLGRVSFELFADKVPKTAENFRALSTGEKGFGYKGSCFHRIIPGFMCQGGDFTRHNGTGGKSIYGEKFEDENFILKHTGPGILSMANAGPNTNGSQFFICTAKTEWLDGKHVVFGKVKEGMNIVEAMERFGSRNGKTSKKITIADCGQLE
Experiment: Disruption of BRAF RBD interaction with Ras (FRET / MOA assay)
Assay type: biochemical
Conditions: read-out: NRAS Q61R FRET data IC50
Experimental: Compound is present in plate wells as a 10-point 3-fold dilution series starting at a final concentration of 30 μM. […] Compounds that facilitate disruption of a Ras:RAF complex are identified as those eliciting a decrease in the TR-FRET ratio relative to DMSO control wells. Note—The following protocol describes a procedure for monitoring disruption of K-Ras G12C (GMP-PNP) binding to BRAF^RBD by a compound of the invention. […]
Give IC50 for every item shown.

Look over these answered cases.
CCn1c(-c2cccnc2[C@H](C)OC)c2c3cc(ccc31)-c1csc(n1)C[C@H](NC(=O)[C@H](C(C)C)N(C)C(=O)N(C)N(C)C)C(=O)N1CCC[C@H](N1)C(=O)OCC(C)(C)C2 (atropisomer, axis not shown) [Compound A454]    0.01 to 0.1 µM
CCn1c(-c2cccnc2[C@H](C)OC)c2c3cc(ccc31)-c1csc(n1)C[C@H](NC(=O)[C@H](C(C)C)N(C)C(=O)N1CCN(C(C)=O)CC1)C(=O)N1CCC[C@H](N1)C(=O)OCC(C)(C)C2 (atropisomer, axis not shown) [Compound A291]    0.01 to 0.1 µM
CCn1c(-c2cccnc2[C@H](C)OC)c2c3cc(ccc31)-c1cc(O)cc(c1)C[C@H](NC(=O)[C@H](C(C)C)N(C)C(=O)C1(C(=O)O)CC1)C(=O)N1CCC[C@H](N1)C(=O)OCC(C)(C)C2 (racemic) [Compound A150]    > 10 µM

// switching to the query compound
Would you kindly share the measured IC50 for CCn1c(-c2cccnc2[C@H](C)OC)c2c3cc(ccc31)-c1csc(n1)C[C@H](NC(=O)[C@H](C(C)C)N(C)C(=O)N1CCN3C(=O)CN(C)C[C@@H]3C1)C(=O)N1CCC[C@H](N1)C(=O)OCC(C)(C)C2 (atropisomer, axis not shown) [Compound A536] ? 0.01 to 0.1 µM

----------
Give pIC50 for every item shown.
molecular target: KRAS Q61H (Homo sapiens, UniProt P01116+P62937, Q61H); assay: Disruption of BRAF RBD interaction with K-Ras (FRET / MOA assay); assay type: biochemical; conditions: read-out: KRAS Q61H FRET data IC50
Sequence (P01116 1-188 isoform P01116-2 Q61H): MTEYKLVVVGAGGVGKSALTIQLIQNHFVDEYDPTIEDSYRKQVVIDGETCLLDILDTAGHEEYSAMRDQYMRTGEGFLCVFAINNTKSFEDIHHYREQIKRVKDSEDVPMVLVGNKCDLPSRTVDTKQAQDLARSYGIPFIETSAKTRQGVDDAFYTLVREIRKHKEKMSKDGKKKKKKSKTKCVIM
Sequence (P62937 whole entry): as the sequence (P62937 whole entry) above
pIC50: −log10 of the molar value.

Look over these answered cases.
CCn1c(-c2cccnc2[C@H](C)OC)c2c3cc(ccc31)-c1csc(n1)C[C@H](NC(=O)[C@H](C(C)C)N(C)C(=O)N1C[C@@H]3CCN(C)C[C@@H]31)C(=O)N1CCC[C@H](N1)C(=O)OCC(C)(C)C2 (atropisomer, axis not shown)    5.00 to 6.00
CO[C@@H](C)c1ncccc1-c1c2c3cc(ccc3n1CC(F)(F)F)-c1csc(n1)C[C@H](NC(=O)[C@H](C(C)C)N(C)C(=O)N1CC(N(C)C)C1)C(=O)N1CCC[C@H](N1)C(=O)OCC(C)(C)C2 (atropisomer, axis not shown)    < 5.00

// switching to the query compound
Would you kindly share the measured pIC50 for CCn1c(-c2cccnc2[C@H](C)OC)c2c3cc(ccc31)-c1csc(n1)C[C@H](NC(=O)[C@H](C(C)C)N(C)C(=O)N1C[C@H]3CCN(C)C[C@H]31)C(=O)N1CCC[C@H](N1)C(=O)OCC(C)(C)C2 (atropisomer, axis not shown) ? 5.00 to 6.00

----------
Target: NRAS Q61R (Homo sapiens, UniProt P01111+P62937, Q61R)
Assay: Disruption of BRAF RBD interaction with Ras (FRET / MOA assay)
Type: biochemical
Details: read-out: NRAS Q61R FRET data IC50
Method: Compound is present in plate wells as a 10-point 3-fold dilution series starting at a final concentration of 30 μM. […] Compounds that facilitate disruption of a Ras:RAF complex are identified as those eliciting a decrease in the TR-FRET ratio relative to DMSO control wells. Note—The following protocol describes a procedure for monitoring disruption of K-Ras G12C (GMP-PNP) binding to BRAF^RBD by a compound of the invention. […]
METRIC: IC50

Look over these answered cases.
CCn1c(-c2cccnc2[C@H](C)OC)c2c3cc(ccc31)-c1csc(n1)C[C@H](NC(=O)[C@H](C(C)C)N(C)C(=O)N1CCC3(COC3)C1)C(=O)N1CCC[C@H](N1)C(=O)OCC(C)(C)C2 (atropisomer, axis not shown)    10 to 100 nM
CCn1c(-c2cc(N3CCN(C)CC3)cnc2[C@H](C)OC)c2c3cc(ccc31)-c1csc(n1)C[C@H](NC(=O)[C@H](C(C)C)N(C)C(=O)[C@@H]1OCC[C@@H]1c1ccncc1)C(=O)N1CCC[C@H](N1)C(=O)OCC(C)(C)C2 (atropisomer, axis not shown)    10 to 100 nM
CCn1c(-c2cccnc2[C@H](C)OC)c2c3cc(ccc31)-c1cc(cc(S(C)(=O)=O)c1)C[C@H](NC(=O)[C@H](C(C)C)N(C)C(C)=O)C(=O)N1CCC[C@H](N1)C(=O)OCC(C)(C)C2 (racemic)    > 10000 nM
CCn1c(-c2cccnc2[C@H](C)OC)c2c3cc(ccc31)-c1csc(n1)C[C@H](NC(=O)[C@H](C(C)C)N1CCC3(CN(S(C)(=O)=O)C3)C1=O)C(=O)N1CCC[C@H](N1)C(=O)OCC(C)(C)C2 (racemic)    > 10000 nM

// switching to the query molecule
Would you kindly share the measured IC50 for CCn1c(-c2cccnc2[C@H](C)OC)c2c3cc(ccc31)-c1csc(n1)C[C@H](NC(=O)[C@H](C(C)C)N(C)C(=O)N1CC(Cc3cnn(C)c3)C1)C(=O)N1CCC[C@H](N1)C(=O)OCC(C)(C)C2 (atropisomer, axis not shown) ? 10 to 100 nM

----------
Molecular target: NRAS Q61R (Homo sapiens, UniProt P01111+P62937, Q61R)
Test: Disruption of BRAF RBD interaction with Ras (FRET / MOA assay)
Type: biochemical
Conditions: read-out: NRAS Q61R FRET data IC50
Experimental: Compound is present in plate wells as a 10-point 3-fold dilution series starting at a final concentration of 30 μM. […] Compounds that facilitate disruption of a Ras:RAF complex are identified as those eliciting a decrease in the TR-FRET ratio relative to DMSO control wells. Note—The following protocol describes a procedure for monitoring disruption of K-Ras G12C (GMP-PNP) binding to BRAF^RBD by a compound of the invention. […]
Give IC50 for every item shown.

For each listed entry, give its IC50.
1. CCn1c(-c2cc(N3CCN(C)CC3)cnc2[C@H](C)OC)c2c3cc(ccc31)-c1csc(n1)C[C@H](NC(=O)[C@H](C(C)C)N(C)C(=O)N1CC(C3COC3)C1)C(=O)N1CCC[C@H](N1)C(=O)OCC(C)(C)C2 (atropisomer, axis not shown)
2. CCn1c(-c2cccnc2[C@H](C)OC)c2c3cc(ccc31)-c1cc(O)cc(c1)C[C@H](NC(=O)[C@H](C(C)C)N(C)C(=O)[C@@H]1OCC[C@@H]1c1ccccc1)C(=O)N1CCC[C@H](N1)C(=O)OCC(C)(C)C2 (atropisomer, axis not shown)
3. CO[C@@H](C)c1ncccc1-c1c2c3cc(ccc3n1CC(F)(F)F)-c1csc(n1)C[C@H](NC(=O)[C@H](C(C)C)N(C)C(=O)N1CC(N(C)C)C1)C(=O)N1CCC[C@H](N1)C(=O)OCC(C)(C)C2 (atropisomer, axis not shown)
4. CCn1c(-c2cccnc2[C@H](C)OC)c2c3cc(ccc31)-c1csc(n1)C[C@H](NC(=O)[C@H](C(C)C)N(C)C(=O)N1C[C@H]3COC[C@H]3C1)C(=O)N1CCC[C@H](N1)C(=O)OCC(C)(C)C2 (atropisomer, axis not shown)

1: 10 to 100 nM; 2: 10 to 100 nM; 3: > 10000 nM; 4: 10 to 100 nM
